TESTED TARGET: human TLR2 (Homo sapiens, UniProt O60603)
Sequence (O60603 21-784): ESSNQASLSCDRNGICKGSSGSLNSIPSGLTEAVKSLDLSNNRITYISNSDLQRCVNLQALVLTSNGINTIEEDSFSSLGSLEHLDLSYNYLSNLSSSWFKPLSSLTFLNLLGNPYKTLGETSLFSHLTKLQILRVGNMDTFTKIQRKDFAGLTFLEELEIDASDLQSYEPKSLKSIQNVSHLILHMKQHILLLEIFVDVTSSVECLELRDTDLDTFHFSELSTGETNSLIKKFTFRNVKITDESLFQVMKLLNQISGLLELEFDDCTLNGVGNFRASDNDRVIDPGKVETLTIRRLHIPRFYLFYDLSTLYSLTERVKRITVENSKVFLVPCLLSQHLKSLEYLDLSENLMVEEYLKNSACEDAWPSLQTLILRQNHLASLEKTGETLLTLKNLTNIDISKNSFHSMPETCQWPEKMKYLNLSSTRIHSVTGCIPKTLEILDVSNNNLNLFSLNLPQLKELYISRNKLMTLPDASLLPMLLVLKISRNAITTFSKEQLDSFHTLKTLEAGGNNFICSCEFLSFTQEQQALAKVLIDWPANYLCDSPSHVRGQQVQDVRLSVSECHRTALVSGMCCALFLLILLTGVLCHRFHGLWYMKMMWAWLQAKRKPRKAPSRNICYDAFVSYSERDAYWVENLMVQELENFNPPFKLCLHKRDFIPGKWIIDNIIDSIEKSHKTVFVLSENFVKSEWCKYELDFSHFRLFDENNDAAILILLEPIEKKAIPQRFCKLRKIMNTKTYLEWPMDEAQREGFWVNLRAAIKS
ASSAY: Reporter gene assay: HEK 293 cells stably transfected with human TLR2 and NF-kB-driven luciferase reporter
CONDITIONS: Hek-TLR2 μM (EC50), HEK 293 stably transfected with human TLR2 and pNifty-Luciferase; 7 hours incubation; concentration giving 50% of maximal signal
Consider the reported EC50 of an entry and match it to a band in 1: < 700 nM; 2: ≥ 700 nM and < 1000 nM; 3: ≥ 1000 nM

Example results:
CHEM SMILES	TESTED TARGET	CLASS ASSIGNMENT
CCCCCCCCNC(=O)OC[C@H](CSC[C@H](N)C(=O)NCCOCCOCCOCCP(=O)(O)O)OC(=O)NCCCCCCCC	human TLR2 (Homo sapiens, UniProt O60603)	3
CCCCCCCCCCCC(=O)OC[C@H](CSC[C@H](N)C(=O)NCCOCCOCCOCCC(=O)O)OC(=O)CCCCCCCCCCC	human TLR2 (Homo sapiens, UniProt O60603)	2
CCCCCCCCCCCC(=O)OC[C@H](CSC[C@H](N)C(=O)NCCOCCOCCOCCOCCP(=O)(O)O)OC(=O)CCCCCCCCCCC	human TLR2 (Homo sapiens, UniProt O60603)	1

Returns: class label. Input: "CCCCCCCCCCCC(=O)OC[C@H](CSC[C@H](N)C(=O)NCCCCCN)OC(=O)CCCCCCCCCCC"
3

Returns: class label. Input: "CCCCCCCCCCCC(=O)OC[C@H](CSC[C@H](N)C(=O)NCCc1ccc(OCCCP(=O)(O)O)cc1)OC(=O)CCCCCCCCCCC"
1
